These entries and their values trace back to the RNAGym collection of RNA variant scans (doi:10.1073/pnas.2313332121).

B1: TPR t1 (parent)
chain: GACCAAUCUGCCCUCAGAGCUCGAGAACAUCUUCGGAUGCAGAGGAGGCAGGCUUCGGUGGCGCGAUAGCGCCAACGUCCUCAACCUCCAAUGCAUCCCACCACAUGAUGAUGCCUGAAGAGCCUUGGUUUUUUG

- Variants of: B1
- ASSAY OVERVIEW: polymerase ribozyme fitness, log enrichment relative to wild type (log ratio); higher = more active; in vitro selection for triplet polymerase activity
Class membership depends on polymerase ribozyme fitness (log ratio) alone; the intervals are interval 1 (below -4), interval 2 (-4 to below -2), interval 3 (-2 or more)

# SEQUENCE TEXT, ANSWER LABEL
rows = [
    ("GCCCAAUCUGCCCUCAGAGGUCGAGAACAUCUUCGGAUGCAGAGGAGGCAGGCUUCGGUAGCGCGAUAGCGCCAACGUCCUCAACCUCCAAUGCAUCCCACCACAUGAUGACGCCUGAAGAGCCUUGGUUUUUUG [A2C C20G G60A U112C]", "interval 1"),
    ("GACCAAUCUGCCCUCAGAGCUCGAGAACAUCUUCGGAUGCAGCGGAGGCAGGCUUCGGUAGCGCGAUAGCGCCAACGUCCUCAACCUCCAAUGCAUCCCACCACAUGAUGAUGCCUGAAGAGCCUUGGUUUUUUG [A43C G60A]", "interval 2"),
    ("GACCAAUCUGCCCUCAGAGCUAGAGAACAUCUUCGGAUGCAGAGGAGGCAGGAUUCGGUGGCGCGAUAGCGCCAACGUCCUCAACCUCCAAUGCAUCCCACCACAUGAUCAUGCCUGAAGAGCCUUGGUUAUUUG [C22A C53A G110C U131A]", "interval 1"),
    ("GACCAAUCUGCCCUCAGAGCUCGAGAACAUCUUCGGAUGCAAAGGAGGCAGGCUACGGUGGCGCGAUAGCGCCAACGUCCUGAACCUCCAAUGCAUCCCACCACAUGAUGAUGCCUGAAGAGCCUUGGUUUUUUG [G42A U55A C82G]", "interval 2"),
    ("GACCAAUCUGCCCUCAGAGCUCGAGAACAUCUUCGGAUGCAGAGGAGGCAGGCUUCGGUGGCGCGAUAUCGCCAACGUCCUCAACCUCCAAUGCAUCCCACCACAUGAUGAGGCCUGAAGAGCAUUGGUUUUCUG [G69U U112G C124A U133C]", "interval 3"),
    ("GACCAAUUUGCCCUCAGAGCUCGAGAACAUCUUCGGAUGAAGAGGAGGCAGGCUUCGGUGGCGCGAUAGCGCCAACGUCCUCAACCUCCAAUGCAUCCCACCACAUGAUGAUGCCUGAAGAGCCUUGGUUUUUUG [C8U C40A]", "interval 3"),
    ("GACCAAUCUGCCCUCAGAGCUCGAGAACAUCUUCGGAUGCAGAGGAGGCAGGCUUCGGUGGCGCGAUAGGGCCAACGCCCUCAACCUCCAAUGCAUCCCACCACAUGAUGAUGCCUGAAAAGCCUUGGUGUUUUG [C70G U78C G120A U130G]", "interval 2"),
    ("GACCAAUCUGCCCUCAGAGCUCGAGAACAUCUUCGGAUGCAGAGGAGGCAGGCUUCGGUCGCGCGAUAGCGCCAACGUCCUCAACCUCCAAUGCAUCCCACCACAUGAUGAUGCCUGAAGGGCCUUGGUUUUUUG [G60C A121G]", "interval 3"),
    ("GACCAAUCUGCCUUCAGAGCUCGAGAACAUCUUCGGAUGCAGAGGAGGCAGGCUUGGGUGGUGCGAUAGCGCCGACGUCCUCAACCUCCAAUGCAACCCCCCACAUGAUGAUGCCUGAAGAGCCUUGGUUUUUUG [C13U C56G C62U A74G U96A A100C]", "interval 1"),
    ("GACCAAUCUGCCCUCAGAGCUCGAGAACAUCUUCGGAUGCAGAGAAGGCAGGCUUCGGUGGCGCGAUAGCGCCAACGUCCUCAACCCCCAAUGCAUACCACCACAUGAUGAUGCCUGAAGAGCCUUGGUUUUUUG [G45A U87C C97A]", "interval 2"),
    ("GACCAAUCUGCCCUCAGAGCUCGAGAACGUCUUCGGAUGCAGAGGAGGCAGGCUUCGGUGGCCCGAUAGCGCCAACGUCCUCAACCUCCAAUGCAUCCCACCAUAGGAUGAUGCCUGAAGAGCCUUGGUUUUUUG [A29G G63C C104U U106G]", "interval 3"),
    ("GACCAAUCUGCCCUCAGAGCUCGAGAACAUCUUCGGAUGCAGAGGGGGCAGGCUUCGGUGGCGCGAUAGAGCCAACGUCCUCAACCUCCAAUGCAUCCCACCACAUGAUGAUGCCUGAAGAGCCUUGGUUUUUUG [A46G C70A]", "interval 3"),
    ("GACCAAUCUGCCCUCAGAGCUCGAGAACAUCUUCGGAUGCAGAGGAGGCAGGCUUCGGUGGCGCGAUAGCGCCAACGCCCUCAACCUCCAAUGCAUCCCACCACAUGAUGAAGGCUGAAGAGCCUUGGUUUUUUG [U78C U112A C114G]", "interval 3"),
    ("GACCAAUCUGCCCUCAGAGCUCGAGAACAUCUUCGGAUGCAGAGGAGGCAGGCUUCGGUGGCGCGAUAGCGCCAACGUCCUCAACCUACAAUGCAUCCCACCACAUGAUGAUCCCUGAAGAACCUUGGAUUUUUG [C88A G113C G122A U129A]", "interval 1"),
    ("GACCAAUCUGCUUUCAGAGCUCGAGAACAUCUUCGGAUGCAUAGGAGGCACGCUUCGGUGGCGCGAUAGCGCCAACGUCCUCAACCUCCAAUGCAUCCCACCACAUGAUGAUGCCGGAAGAGCCUUGGUUUUUUG [C12U C13U G42U G51C U116G]", "interval 1"),
    ("GACCAAUCUGCCCUCAGAGCUCGAGAACGUCUUCGGAUGCAGAGGAGGCAGGCUUCGGUUGCGCGAUAGCGCCAACGUCCUCACCCUCCAAUGUAUCCCACCACAAGAUGAUGCCUGAAAAGCCGUGGUUUUUUG [A29G G60U A84C C94U U106A G120A U125G]", "interval 3"),
    ("GACAAAUCUGCCCUCAGAGCUCGAGAACAUCUUCGGAUGUAGAGGAGGCAGGCUUCGGUGUCGCGAUAGCGCCAACGUCCUCAACCUCCAAUGCAUCCCACCACAUGAUGAUGCCUGAAGAGCCUUGGUUUUUUG [C4A C40U G61U]", "interval 3"),
    ("GACCAAUCUGCACUCAGAGCUCGAGAACAUCUUCGGAUGCAGAGGAGGCAGGCUUCGGUGCCGCGAUAGCGCCAACGCCUUAAACCUCCAAUGCAUCCCACCACAUGAUGAUGCCUGAAGCGCCUUGGUUUUUUG [C12A G61C U78C C80U C82A A121C]", "interval 1"),
    ("GCCCAAUCUGCCCUCAGAGCUCGAGAACAUCUUCGGAUGCAGAGGAGGCAGGCUUCGGUGGCGCGAUAGCGCCAACGUCCUCAACCUCCAAUGCAUCCCAACACAUGAUGAUGCCUGAAGAGCCUUGGAUUUUUG [A2C C101A U129A]", "interval 2"),
    ("GACCAAUCUGCCCUCAGGGCUCGAGAACAUCUUCGGAUGCAGAGGAGGCAGGCUUCGGUGGUGCGAUAGCGCCCACGUCCUCAACCUCCAAUGCAUCCCACCACAUGAUGAUGCCUGAAGAGCCUUGGUUUUUUG [A18G C62U A74C]", "interval 1"),
    ("GACCAAUCUGCCCUCAGAGCUCGAGAACAUCUUCGGUUGCAGAGGAGGUAGGCUUCGGUGGCGUGAUAGCGCCAACGUCCUCAACCUCCAAUGCAUCCCACCACAUGAUGAUGUCUGAAGAGCCUUGGUUUUUUG [A37U C49U C64U C114U]", "interval 2"),
    ("GACCAACCUGCCCUCAGAGCUCGAGAAGAUCUUCGGAUGCAGAGGAGGCAGGCUUCGGUGUCGCGAUAGCGCCAACGUCCUCAACCUCCAAUGCAUCCCACCACAUGAUGAUGCCUGAAGAGCCUUGGUUUUUUG [U7C C28G G61U]", "interval 2"),
    ("GACCAAUCUACCCUCAGAGCUCGAGAACAUCUUCGGAUGCAGAGGAGGCAGGCUUCUGUGGCGCGAUAGCGCCAACGUCCUCAACCUCCGAUGCAUCCCACCACAUGAUGAUGCCUGAAGAGCCUAGGUUUUUUG [G10A G57U A90G U126A]", "interval 3"),
    ("GACCAAUCUGCCGUCAGAGCUCGAGAACAUCUUCGGAUGCAGAGGAGGCAGGCUUCGGUGGCGCGAUAGCGCCCACGUCCUCAACCUCCAAUGCAUCCCACCACAUGAUGAUGCCUGAAGAGCCUUGGUUUUUUG [C13G A74C]", "interval 2"),
]
